# assay.method.text: patients with anti-drug antibodies; higher = more immunogenic
Reported patients with anti-drug antibodies values are given for each entry in this list.
Could you give me the number in %? Just the number is fine.

[
  {
    "protein": "unnamed (protein) chain 1: QVQLVQSGAEVKKPGASVKVSCKVSGYTLSDLSIHWVRQAPGKGLEWMGGFDPQDGETIYAQKFQGRVTMTEDTSTDTAYMELSSLKSEDTAVYYCATGSSSSWFDPWGQGTLVTVSS chain 2: DIQMTQSPSSVSASVGDRVTITCRASQGISSWLAWYQQKPGKAPKLLIYGASNLESGVPSRFSGSGSGTDFTLTISSLQPEDFANYYCQQANSFPWTFGQGTKVEIK",
    "patients with anti-drug antibodies / %": 0.4
  },
  {
    "protein": "unnamed (protein) chain 1: EVQLVESGGGLVKPGGSLKLSCAASGFKFSRYAMSWVRQAPGKRLEWVATISSGGSYIYYPDSVKGRFTISRDNVKNTLYLQMSSLRSEDTAMYYCARRDYDLDYFDSWGQGTLVTVSS chain 2: DIQMTQSPSSLSASVGDRVTITCKASRDIRSYLTWYQQKPGKAPKTLIYYATSLADGVPSRFSGSGSGQDYSLTISSLESDDTATYYCLQHGESPFTLGSGTKLEIK",
    "patients with anti-drug antibodies / %": 15.8
  },
  {
    "protein": "unnamed (protein) chain 1: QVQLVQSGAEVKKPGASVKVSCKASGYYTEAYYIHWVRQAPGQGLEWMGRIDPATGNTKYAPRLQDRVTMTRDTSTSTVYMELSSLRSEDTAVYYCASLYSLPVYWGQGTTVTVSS chain 2: DVVMTQSPLSLPVTLGQPASISCKSSQSLLYSDAKTYLNWFQQRPGQSPRRLIYQISRLDPGVPDRFSGSGSGTDFTLKISRVEAEDVGVYYCLQGTHYPVLFGQGTRLEIK",
    "patients with anti-drug antibodies / %": 0
  }
]

QUERY: I have this protein here, unnamed (protein) chain 1: QVQLVQSGAEVKKPGASVKVSCKASGYTFTRYGISWVRQAPGQGLEWMGWISTYSGNTNYAQKLQGRVTMTTDTSTSTAYMELRSLRSDDTAVYYCARRQLYFDYWGQGTLVTVSS chain 2: EIVMTQSPATLSVSPGERATLSCRASQSVSSNLAWFQQKPGQAPRPLIYDASTRATGVPARFSGSGSGTDFTLTISSLQSEDFAVYYCQQYDNWPLTFGGGTKVEIK , and I need its recorded patients with anti-drug antibodies.
RESULT: 3

QUERY: I have this protein here, unnamed (protein) chain 1: QVQLVQSGSELKKPGASVKVSCKASGYTFTDNNMDWVRQAPGQGLEWMGDINTRSGGSIYNEEFQDRVIMTVDKSTDTAYMELSSLRSEDTATYHCARRKSYGYYLDEWGEGTLVTVSS chain 2: DIQMTQSPSSLSASVGDRVTITCKASRNIERQLAWYQQKPGQAPELLIYQASRKESGVPDRFSGSRYGTDFTLTISSLQPEDIATYYCQQYSDPPLTFGGGTKVEIK , and I need its recorded patients with anti-drug antibodies.
RESULT: 3.5

QUERY: I have this protein here, unnamed (protein) chain 1: QVQLVQSGAEVKRPGASVKVSCKASGYTFTNDIIHWVRQAPGQRLEWMGWINAGYGNTQYSQNFQDRVSITRDTSASTAYMELISLRSEDTAVYYCAREPLWFGESSPHDYYGMDVWGQGTTVTVSS chain 2: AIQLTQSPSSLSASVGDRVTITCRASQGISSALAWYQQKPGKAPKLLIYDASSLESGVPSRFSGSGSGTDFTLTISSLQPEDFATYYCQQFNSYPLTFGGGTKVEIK , and I need its recorded patients with anti-drug antibodies.
RESULT: 1.7

QUERY: I have this protein here, unnamed (protein) chain 1: EVQLVESGGGLVQPGGSLRLSCAASGFTFSSYWMSWVRQAPGKGLEWVAYIKQDGNEKYYVDSVKGRFTISRDNAKNSLYLQMNSLRAEDTAVYYCAREGILWFGDLPTFWGQGTLVTVSS chain 2: DIQMTQSPSSLSASVGDRVTITCRASQGISNWLAWYQQKPEKAPKSLIYAASSLQSGVPSRFSGSGSGTDFTLTISSLQPEDFATYYCQQYDSYPRTFGQGTKVEIK , and I need its recorded patients with anti-drug antibodies.
RESULT: 0

QUERY: I have this protein here, unnamed (protein) chain 1: QVQLQESGPGLVRPSQTLSLTCTASGYTFTDYVIHWVKQPPGRGLEWIGYINPYDDDTTYNQKFKGRVTMLVDTSSNTAYLRLSSVTAEDTAVYYCARRGNSYDGYFDYSMDYWGSGTPVTVSS chain 2: DIQMTQSPSSLSASVGDRVTITCRASQNVGTAVAWLQQTPGKAPKLLIYSASNRYTGVPSRFSGSGSGTDYTFTISSLQPEDIATYYCQQYTNYPMYTFGQGTKVQIK , and I need its recorded patients with anti-drug antibodies.
RESULT: 4.5

QUERY: I have this protein here, unnamed (protein) chain 1: EVQLVESGGGLVRPGGSLRLSCAASGFTFSNYDMHWVRQATGKGLEWVSAITAAGDIYYPGSVKGRFTISRENAKNSLYLQMNSLRAGDTAVYYCARGRYSGSGSYYNDWFDPWGQGTLVTVSS chain 2: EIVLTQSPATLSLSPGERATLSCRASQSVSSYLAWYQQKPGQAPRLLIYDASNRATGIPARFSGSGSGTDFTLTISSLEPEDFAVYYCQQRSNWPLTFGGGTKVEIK , and I need its recorded patients with anti-drug antibodies.
RESULT: 3.6

QUERY: I have this protein here, unnamed (protein) chain 1: EVQLVESGGGLVQPGGSLRLSCAASGFTFSSYGMSWVRQAPGKGLELVASINSNGGSTYYPDSVKGRFTISRDNAKNSLYLQMNSLRAEDTAVYYCASGDYWGQGTTVTVSS chain 2: DIVMTQSPLSLPVTPGEPASISCRSSQSLVYSNGDTYLHWYLQKPGQSPQLLIYKVSNRFSGVPDRFSGSGSGTDFTLKISRVEAEDVGVYYCSQSTHVPWTFGQGTKVEIK , and I need its recorded patients with anti-drug antibodies.
RESULT: 0
